Below, each entry is listed with its recorded mass density.
appliedConditions: 306.65 K; 101.33 kPa; Liquid; Vibrating tube method
assayReadout: mass density (kg/m3)

>  <compound>
CC(=O)[O-].C[NH2+]CCO [N-methyl-2-hydroxyethylammonium acetate]

>  <numericResult>
1095.74

$$$$
>  <compound>
CCCCC(=O)[O-].C[NH2+]CCO [2-hydroxy-N-methylethanaminium pentanoate]

>  <numericResult>
1010.52

$$$$
>  <compound>
CCCC(=O)[O-].C[NH2+]CCO [N-methyl-2-hydroxyethylammonium butanoate]

>  <numericResult>
1033.54

$$$$
>  <compound>
C[NH2+]CCO.O=C[O-] [2-hydroxy-N-methylethanaminium formate]

>  <numericResult>
1123.5

$$$$
>  <compound>
CCC(=O)[O-].C[NH2+]CCO [2-hydroxy-N-methylethanaminium propionate]

>  <numericResult>
1065.77

$$$$
>  <compound>
CC(C)C(=O)[O-].C[NH2+]CCO [2-hydroxy-N-methylethanaminium isobutyrate]

>  <numericResult>
1037.9

$$$$

----------
appliedConditions: 281.9 K; 101.33 kPa; Liquid; Vibrating tube method

>  <compound>
CC(C)C(=O)[O-].C[NH2+]CCO [2-hydroxy-N-methylethanaminium isobutyrate]

>  <mass density (kg/m3)>
1053.72

$$$$
>  <compound>
CCC(=O)[O-].C[NH2+]CCO [2-hydroxy-N-methylethanaminium propionate]

>  <mass density (kg/m3)>
1081.86

$$$$
>  <compound>
C[NH2+]CCO.O=C[O-] [2-hydroxy-N-methylethanaminium formate]

>  <mass density (kg/m3)>
1137.32

$$$$
>  <compound>
CC(=O)[O-].C[NH2+]CCO [N-methyl-2-hydroxyethylammonium acetate]

>  <mass density (kg/m3)>
1110.58

$$$$
>  <compound>
CCCC(=O)[O-].C[NH2+]CCO [N-methyl-2-hydroxyethylammonium butanoate]

>  <mass density (kg/m3)>
1050.21

$$$$
>  <compound>
CCCCC(=O)[O-].C[NH2+]CCO [2-hydroxy-N-methylethanaminium pentanoate]

>  <mass density (kg/m3)>
1027.18

$$$$

----------
Reported mass density is given for each of the following molecules.
appliedConditions: 335.41 K; 101.33 kPa; Liquid; Vibrating tube method
assayReadout: mass density (kg/m3)

>  <molecule>
CC(C)C(=O)[O-].C[NH2+]CCO [2-hydroxy-N-methylethanaminium isobutyrate]

>  <assayReadout>
mass density

>  <numericResult>
1018.73

$$$$
>  <molecule>
CC(=O)[O-].C[NH2+]CCO [N-methyl-2-hydroxyethylammonium acetate]

>  <assayReadout>
mass density

>  <numericResult>
1077.92

$$$$
>  <molecule>
CCCC(=O)[O-].C[NH2+]CCO [N-methyl-2-hydroxyethylammonium butanoate]

>  <assayReadout>
mass density

>  <numericResult>
1013.65

$$$$
>  <molecule>
CCC(=O)[O-].C[NH2+]CCO [2-hydroxy-N-methylethanaminium propionate]

>  <assayReadout>
mass density

>  <numericResult>
1046.47

$$$$
>  <molecule>
CCCCC(=O)[O-].C[NH2+]CCO [2-hydroxy-N-methylethanaminium pentanoate]

>  <assayReadout>
mass density

>  <numericResult>
990.651

$$$$
>  <molecule>
C[NH2+]CCO.O=C[O-] [2-hydroxy-N-methylethanaminium formate]

>  <assayReadout>
mass density

>  <numericResult>
1107.79

$$$$
